# System: MGC803
# assayText: CCK-8 half inhibitory concentration on gastric cancer cells
# Format: cell-based
# testSettings: CCK-8, MGC803
quantityMeasured: pIC50
When answering, recall that pIC50 equals minus log10 of the concentration in mol/L, and write that number alone.

Note to self: pIC50 recorded for COc1ccc2[nH]c3c(-c4cccc5ccccc45)nccc3c2c1 was 6.21
